system: gezüchteten menschlichen Keratinocyten; assay: Morphological differentiation of cultured human keratinocytes (cell counts by cell type); format: cell-based; conditions: Dosis 10⁻¹⁰ M
METRIC: Anzahl Zellen (x10⁴): verhornte Plattenepithelzellen
Give just the number in x10⁴; leave the unit off.

| COMPOUND | ENDPOINT_VALUE |
| --- | --- |
| C=C1CC[C@H](O)C/C1=C/C=C1\CCC[C@]2(C)C([C@H](C)CCCC(C)(C)O)=CC[C@@H]12 [Verbindung B, 25-Hydroxy-16-dehydrocholecalciferol] | 25 |
| C=C1CC[C@H](O)C/C1=C/C=C1\CCC[C@]2(C)C([C@H](C)CC#CC(C)(C)O)=CC[C@@H]12 | 103 |

Lab note: next compound to report on.
Reported Anzahl Zellen (x10⁴): verhornte Plattenepithelzellen for `C=C1/C(=C\C=C2/CCC[C@]3(C)C([C@H](C)C/C=C/C(C)(C)O)=CC[C@@H]23)C[C@@H](O)C[C@@H]1O` was 103

* * *

system: menschlicher promyelocytischer Tumorzellen HL-60; test: Antiproliferative (AP) effect on HL-60 cells; format: cell-based; conditions: Homo sapiens, concentration that reduces the cell number by 50%, read-out: ID50 (the source's name)
METRIC: pIC50
// pIC50: -log10(molar conc.)

Reported pIC50 for C=C1CC[C@H](O)C/C1=C/C=C1\CCC[C@]2(C)C([C@H](C)C/C=C/C(C)(C)O)=CC[C@@H]12 [Verbindung D] was 5.82

Reported pIC50 for C=C1CC[C@H](O)C/C1=C/C=C1\CCC[C@]2(C)C([C@H](C)CCCC(C)(C)O)=CC[C@@H]12 [Verbindung B, 25-Hydroxy-16-dehydrocholecalciferol] was 6.46

Reported pIC50 for C=C1CC[C@H](O)C/C1=C/C=C1\CCC[C@]2(C)C([C@H](C)CC#CC(C)(C)O)=CC[C@@H]12 [Verbindung F] was 6.15

* * *

tested on: menschlicher promyelocytischer Tumorzellen HL-60; assay: Differentiation-inducing (DI) effect on HL-60 cells; assay type: cell-based; conditions: Konzentration 100 (head prints x10 M)
METRIC: Differenzierte Zellen (%)
Give just the number in %; leave the unit off.

Answered examples (2):
| COMPOUND | OUTPUT_UNIT | Differenzierte Zellen (%) |
| --- | --- | --- |
| C=C1/C(=C\C=C2/CCC[C@]3(C)[C@@H]([C@H](C)CCCC(C)(C)O)CC[C@@H]23)C[C@@H](O)C[C@@H]1O [Verbindung X, 1,25-Dihydroxychalecalciferol, reference compound] | % | 98 |
| C=C1CC[C@H](O)C/C1=C/C=C1\CCC[C@]2(C)C([C@H](C)C/C=C/C(C)(C)O)=CC[C@@H]12 | % | 31 |

Lab note: next compound to report on.
Reported Differenzierte Zellen (%) for `C=C1CC[C@H](O)C/C1=C/C=C1\CCC[C@]2(C)C([C@H](C)CC#CC(C)(C)O)=CC[C@@H]12` was 55

* * *

system: menschlicher promyelocytischer Tumorzellen HL-60; experiment: Differentiation-inducing (DI) effect on HL-60 cells; assay type: cell-based; conditions: Konzentration 100 (head prints x10 M)
METRIC: Differenzierte Zellen (%)
Give just the number in %; leave the unit off.

| MOLECULE | OUTPUT_UNIT | ENDPOINT_VALUE |
| --- | --- | --- |
| C=C1CC[C@H](O)C/C1=C/C=C1\CCC[C@]2(C)C([C@H](C)CCCC(C)(C)O)=CC[C@@H]12 [Verbindung B, 25-Hydroxy-16-dehydrocholecalciferol] | % | 93 |
| C=C1/C(=C\C=C2/CCC[C@]3(C)C([C@H](C)C/C=C/C(C)(C)O)=CC[C@@H]23)C[C@@H](O)C[C@@H]1O [Verbindung C] | % | 99 |

Lab note: next molecule to report on.
Value (Differenzierte Zellen (%), menschlicher promyelocytischer Tumorzellen HL-60) for record C=C1/C(=C\C=C2/CCC[C@]3(C)C([C@H](C)CCCC(C)(C)O)=CC[C@@H]23)C[C@@H](O)C[C@@H]1O [Verbindung A, 1,25-Dihydroxy-16-dehydrocholecalciferol] = 98

* * *

tested on: menschlicher promyelocytischer Tumorzellen HL-60; test: Differentiation-inducing (DI) effect on HL-60 cells; assay type: cell-based; conditions: Konzentration 1 (head prints x10 M)
Attribute: Differenzierte Zellen (%)

Answered examples (2):
| COMPOUND | ENDPOINT_VALUE |
| --- | --- |
| C=C1/C(=C\C=C2/CCC[C@]3(C)C([C@H](C)CC#CC(C)(C)O)=CC[C@@H]23)C[C@@H](O)C[C@@H]1O | 96% |
| C=C1/C(=C\C=C2/CCC[C@]3(C)C([C@H](C)CCCC(C)(C)O)=CC[C@@H]23)C[C@@H](O)C[C@@H]1O [Verbindung A, 1,25-Dihydroxy-16-dehydrocholecalciferol] | 92% |

Lab note: next compound to report on.
Reported Differenzierte Zellen (%) for `C=C1CC[C@H](O)C/C1=C/C=C1\CCC[C@]2(C)C([C@H](C)CC#CC(C)(C)O)=CC[C@@H]12` was 12%

* * *

test system: gezüchteten menschlichen Keratinocyten; assay: Morphological differentiation of cultured human keratinocytes (cell counts by cell type); type: cell-based; conditions: Dosis 10⁻⁶ M
Attribute: Anzahl Zellen (x10⁴): Plattenepithelzellen
Give just the number in x10⁴; leave the unit off.

| COMPOUND | ENDPOINT_VALUE |
| --- | --- |
| C=C1CC[C@H](O)C/C1=C/C=C1\CCC[C@]2(C)C([C@H](C)C/C=C/C(C)(C)O)=CC[C@@H]12 [Verbindung D] | 26 |
| C=C1CC[C@H](O)C/C1=C/C=C1\CCC[C@]2(C)C([C@H](C)CC#CC(C)(C)O)=CC[C@@H]12 [Verbindung F] | 29 |
| C=C1/C(=C\C=C2/CCC[C@]3(C)C([C@H](C)CC#CC(C)(C)O)=CC[C@@H]23)C[C@@H](O)C[C@@H]1O [Verbindung E] | 27 |

Reported Anzahl Zellen (x10⁴): Plattenepithelzellen for C=C1/C(=C\C=C2/CCC[C@]3(C)C([C@H](C)C/C=C/C(C)(C)O)=CC[C@@H]23)C[C@@H](O)C[C@@H]1O [Verbindung C] was 26

Reported Anzahl Zellen (x10⁴): Plattenepithelzellen for C=C1/C(=C\C=C2/CCC[C@]3(C)C([C@H](C)CCCC(C)(C)O)=CC[C@@H]23)C[C@@H](O)C[C@@H]1O [Verbindung A, 1,25-Dihydroxy-16-dehydrocholecalciferol] was 30

Reported Anzahl Zellen (x10⁴): Plattenepithelzellen for C=C1CC[C@H](O)C/C1=C/C=C1\CCC[C@]2(C)C([C@H](C)CCCC(C)(C)O)=CC[C@@H]12 [Verbindung B, 25-Hydroxy-16-dehydrocholecalciferol] was 30

* * *

system: gezüchteten menschlichen Keratinocyten; test: Morphological differentiation of cultured human keratinocytes (cell counts by cell type); type: cell-based; conditions: Dosis 10⁻¹⁰ M
Attribute: Anzahl Zellen (x10⁴): Gesamtanzahl
Please give the number followed by its unit.

| COMPOUND | ASSAYED_SYSTEM | ENDPOINT_VALUE |
| --- | --- | --- |
| C=C1/C(=C\C=C2/CCC[C@]3(C)C([C@H](C)C/C=C/C(C)(C)O)=CC[C@@H]23)C[C@@H](O)C[C@@H]1O | gezüchteten menschlichen Keratinocyten | 117±4 x10⁴ |

Value (Anzahl Zellen (x10⁴): Gesamtanzahl, gezüchteten menschlichen Keratinocyten) for record `C=C1CC[C@H](O)C/C1=C/C=C1\CCC[C@]2(C)C([C@H](C)CC#CC(C)(C)O)=CC[C@@H]12` = 103±5 x10⁴

Value (Anzahl Zellen (x10⁴): Gesamtanzahl, gezüchteten menschlichen Keratinocyten) for record C=C1/C(=C\C=C2/CCC[C@]3(C)C([C@H](C)CCCC(C)(C)O)=CC[C@@H]23)C[C@@H](O)C[C@@H]1O [Verbindung A, 1,25-Dihydroxy-16-dehydrocholecalciferol] = 132±8 x10⁴

Value (Anzahl Zellen (x10⁴): Gesamtanzahl, gezüchteten menschlichen Keratinocyten) for record `C=C1CC[C@H](O)C/C1=C/C=C1\CCC[C@]2(C)C([C@H](C)C/C=C/C(C)(C)O)=CC[C@@H]12` = 113±7 x10⁴

Value (Anzahl Zellen (x10⁴): Gesamtanzahl, gezüchteten menschlichen Keratinocyten) for record `C=C1/C(=C\C=C2/CCC[C@]3(C)C([C@H](C)CC#CC(C)(C)O)=CC[C@@H]23)C[C@@H](O)C[C@@H]1O` = 86±4 x10⁴

Value (Anzahl Zellen (x10⁴): Gesamtanzahl, gezüchteten menschlichen Keratinocyten) for record C=C1CC[C@H](O)C/C1=C/C=C1\CCC[C@]2(C)C([C@H](C)CCCC(C)(C)O)=CC[C@@H]12 [Verbindung B, 25-Hydroxy-16-dehydrocholecalciferol] = 133±6 x10⁴

* * *

tested on: menschlicher promyelocytischer Tumorzellen HL-60; assay: Antiproliferative (AP) effect on HL-60 cells; format: cell-based; conditions: Konzentration 10 (head prints x10 M)
Class condition met: % Reduktion der Anzahl Zellen at least 20%. Class condition not met: % Reduktion der Anzahl Zellen below 20%.

| COMPOUND | DISCRETE_LABEL |
| --- | --- |
| C=C1/C(=C\C=C2/CCC[C@]3(C)C([C@H](C)C/C=C/C(C)(C)O)=CC[C@@H]23)C[C@@H](O)C[C@@H]1O | condition met |
| C=C1CC[C@H](O)C/C1=C/C=C1\CCC[C@]2(C)C([C@H](C)CC#CC(C)(C)O)=CC[C@@H]12 | condition not met |
| C=C1CC[C@H](O)C/C1=C/C=C1\CCC[C@]2(C)C([C@H](C)CCCC(C)(C)O)=CC[C@@H]12 [Verbindung B, 25-Hydroxy-16-dehydrocholecalciferol] | condition not met |
| C=C1/C(=C\C=C2/CCC[C@]3(C)C([C@H](C)CC#CC(C)(C)O)=CC[C@@H]23)C[C@@H](O)C[C@@H]1O | condition met |
| C=C1/C(=C\C=C2/CCC[C@]3(C)C([C@H](C)CCCC(C)(C)O)=CC[C@@H]23)C[C@@H](O)C[C@@H]1O [Verbindung A, 1,25-Dihydroxy-16-dehydrocholecalciferol] | condition met |
| C=C1/C(=C\C=C2/CCC[C@]3(C)[C@@H]([C@H](C)CCCC(C)(C)O)CC[C@@H]23)C[C@@H](O)C[C@@H]1O [Verbindung X, 1,25-Dihydroxychalecalciferol, reference compound] | condition met |

Here is another compound to look at.
Quick check: does `C=C1CC[C@H](O)C/C1=C/C=C1\CCC[C@]2(C)C([C@H](C)C/C=C/C(C)(C)O)=CC[C@@H]12` have % Reduktion der Anzahl Zellen greater than or equal to 20%?
condition not met
